- System: E13 (patient-derived glioblastoma stem cells of classical subtype)
- experiment: surviving fraction (nuclei count normalised to DMSO); higher = more cells surviving (less toxic)
- experimental-parameters: 1000 nM; exposure time: 72 h
Counter-ions that a name gives are not always drawn.
outcome-measure: surviving fraction
Could you respond with only the numeric value?

# input Which surviving fraction value belongs to COc1cc2c(c(OC)c1OC)-c1ccc(OC)c(=O)cc1[C@@H](NC(C)=O)CC2 [Colchicine] ?
# output 0.152

# input Do the same for CCCCCCCCCCCCCCCC[N+](C)(C)CCN(Cc1ccc(OC)cc1)c1ncccn1 [Thonzonium bromide] please
# output 0.555

# input Same thing, different compound: Nc1ncn([C@@H]2O[C@H](CO)[C@@H](O)[C@H]2O)c(=O)n1 [5-azacytidine]
# output 0.67

# input Would you kindly repeat that for CC[C@@]1(O)C(=O)OCc2c1cc1n(c2=O)Cc2cc3cc(O)ccc3nc2-1 [Hydroxy Camptothecine] ?
# output 0.197

# input Here is the next compound: CC(=O)CC(c1ccc([N+](=O)[O-])cc1)c1c(O)c2ccccc2oc1=O (stereo unspecified) [Acenocoumarol]
# output 0.931

# input // query: CCCCC(CC)CNC(=N)NC(=N)NCCCCCCNC(=N)NC(=N)NCC(CC)CCCC (stereo unspecified) [Alexidine dihydrochloride]
# output 0.602

# input For CN1CCC(NC(=O)c2cc(-c3c(O)cc(O)cc3Oc3ccc([N+](=O)[O-])cc3)on2)CC1 [NMS-E973] then?
# output 0.192

# input For COc1nc(C)nc(Cl)c1NC1=NCCN1 [Moxonidine] then?
# output 0.948

# input Try this compound too: O=C(O)c1ccc(-c2c[nH]c3ncc(-c4ccccc4)cc23)cc1C1CCCC1
# output 0.588

# input Okay, and COc1ccc2[nH]c([S+]([O-])Cc3ncc(C)c(OC)c3C)nc2c1 (stereo unspecified) [Omeprazole] ?
# output 1

# input Likewise for C[C@@H]1C[C@@H]([C@H](O)CC2CC(=O)NC(=O)C2)C(=O)[C@@H](C)C1 [Cycloheximide] ?
# output 0.408

# input Lookup CCn1c(-c2nonc2N)nc2cnc(Oc3cccc(NC(=O)c4ccc(OCCN5CCOCC5)cc4)c3)cc21
# output 0.729

# input And Cc1c(-c2ccc(-c3ccccc3F)cc2)nc2ccc(F)cc2c1C(=O)O [Brequinar sodium salt hydrate] ?
# output 0.615

# input Entry to check: CCOC(=O)OC(C)OC1=C(C(=O)Nc2ccccn2)N(C)S(=O)(=O)c2ccccc21 (stereo unspecified) [Ampiroxicam]
# output 0.895

# input Another compound: CCCCCCCCCCCCCC(=O)O[C@@H]1[C@@H](C)[C@@]2(O)[C@@H](C=C(CO)C[C@]3(O)C(=O)C(C)=C[C@@H]23)[C@@H]2C(C)(C)[C@]12OC(C)=O [Phorbol 12-myristate 13-acetate]
# output 0.576

# input What about C[C@@H](O[C@H]1OCCN(Cc2n[nH]c(=O)[nH]2)[C@H]1c1ccc(F)cc1)c1cc(C(F)(F)F)cc(C(F)(F)F)c1 [Aprepitant] ?
# output 0.903

---

- Test system: FT3469 (normal neural stem cell line)
- experiment: surviving fraction (nuclei count normalised to DMSO); higher = more cells surviving (less toxic)
- experimental-parameters: 333.333 nM; exposure time: 72 h
outcome-measure: surviving fraction

# input // fetch FT3469 surviving fraction for O=c1c2ccccc2[se]n1-c1ccccc1
# output 1.32

# input Next molecule up: C/C=C(\C)C(=O)N[C@@H](c1ccccc1)[C@@H](O)C(=O)O[C@H]1C[C@@]2(O)[C@@H](OC(=O)c3ccccc3)[C@@H]3[C@]4(OC(C)=O)CO[C@@H]4C[C@H](O)[C@@]3(C)C(=O)[C@H](OC(C)=O)C(=C1C)C2(C)C
# output 0.378

# input // same read-out, input: Cc1[nH]nc(C(F)(F)F)c1Cc1sc2c(c1C(=O)N1C[C@](C)(O)CO1)c(=O)n(C)c(=O)n2C(C)C
# output 0.841

---

- Tested on: E31 (patient-derived glioblastoma stem cells of proneural subtype)
- experiment: surviving fraction (nuclei count normalised to DMSO); higher = more cells surviving (less toxic)
- experimental-parameters: 4.11523 nM; exposure time: 72 h
Where a name gives a salt, the structure may show the parent alone.
outcome-measure: surviving fraction
Give the value as a plain number.

# input Look up surviving fraction for this molecule: CCN(CC)CCCC(C)Nc1c2ccc(Cl)cc2nc2ccc(OC)cc12 (centres undefined) [Quinacrine dihydrochloride hydrate]
# output 0.883

# input Record: O=[N+]([O-])c1ccc2c(c1)S(=O)(=O)C=C2
# output 0.993

# input Entry to check: COC(=O)[C@@H]1[C@H]2C[C@H]3c4[nH]c5ccccc5c4CCN3C[C@@H]2CC[C@@H]1O [Yohimbine hydrochloride]
# output 0.959

# input How about O=c1c2ccccc2[se]n1-c1ccccc1 ?
# output 0.993

# input Also, OCCN1C[C@H](O)[C@@H](O)[C@H](O)[C@H]1CO please.
# output 0.768

# input # repeat for COc1cc2nc(N3CCN(C(=O)c4ccco4)CC3)nc(N)c2cc1OC [Prazosin hydrochloride]
# output 0.988

# input And for C/C=C(\C)C(=O)N[C@@H](c1ccccc1)[C@@H](O)C(=O)O[C@H]1C[C@@]2(O)[C@@H](OC(=O)c3ccccc3)[C@@H]3[C@]4(OC(C)=O)CO[C@@H]4C[C@H](O)[C@@]3(C)C(=O)[C@H](OC(C)=O)C(=C1C)C2(C)C ?
# output 0.23

# input Also need Nc1ncn([C@@H]2O[C@H](CO)[C@@H](O)[C@H]2O)c(=O)n1 , thanks.
# output 0.945

# input Try this molecule next: COc1cc([C@@H]2c3cc4c(cc3[C@@H](O[C@@H]3O[C@@H]5CO[C@@H](C)O[C@H]5[C@H](O)[C@H]3O)[C@H]3COC(=O)[C@H]23)OCO4)cc(OC)c1O [Etoposide]
# output 0.746

---

- System: E28 (patient-derived glioblastoma stem cells of classical subtype)
- experiment: phenotypic distance (Euclidean, principal components) from DMSO controls (arbitrary units); higher = stronger morphological change
- experimental-parameters: 3000 nM; exposure time: 72 h
Structures can show the parent of a compound that is named as a salt.
outcome-measure: phenotypic distance
Write the number on its own, no unit after it.

# input Can you look up phenotypic distance on E28 for CCn1cc(-c2ccnc3[nH]c(-c4cccc(CN(C)C)c4)cc23)c(-c2ccc(NC(=O)N(C)C)cc2)n1 ?
# output 2.95

# input Try COc1cc(N)c(Cl)cc1C(=O)NC1CCN(CCCOc2ccc(F)cc2)CC1OC (stereo not drawn) [Cisapride] next.
# output 1.01

# input Param item: CN1C(=O)CC(c2ccccc2)C1=O (stereo not drawn) [Phensuximide]
# output 0.714

# input Would you kindly repeat that for Cc1cc(CN)cc(C)c1NC(=O)c1ccc(-c2cc(Cl)ccc2Cl)o1 ?
# output 0.815

# input Lookup CCOC(=O)OC(C)OC(=O)[C@@H]1N2C(=O)[C@@H](NC(=O)[C@H](N)c3ccccc3)[C@H]2SC1(C)C (stereo partly drawn) [Bacampicillin hydrochloride]
# output 0.881

# input Would you mind doing CN(C(=O)CN(CCO)CC(=O)N(C)C(C)(C)Cc1ccccc1)C(C)(C)Cc1ccccc1 as well?
# output 0.763

# input Lookup O=C(C1CC1)N1CC[C@@H](Cc2n[nH]c(=O)n2-c2ccc(-c3ccc4occc4c3)cc2)C1
# output 3.76

# input Please give the result for CC(C)NCC(O)c1cc(O)cc(O)c1 (stereo not drawn) [Metaproterenol sulfate, orciprenaline sulfate] too.
# output 0.934

---

- Test system: E57 (patient-derived glioblastoma stem cells of mesenchymal subtype)
- experiment: phenotypic distance (Euclidean, principal components) from DMSO controls (arbitrary units); higher = stronger morphological change
- experimental-parameters: 4.1 nM; exposure time: 72 h
Structures can show the parent of a compound that is named as a salt.
outcome-measure: phenotypic distance
// print number alone

# input Looking for the measured phenotypic distance of CC1=C(/C=C/C(C)=C/C=C/C(C)=C/C(=O)Nc2ccc(O)cc2)C(C)(C)CCC1 [Retinoic acid p-hydroxyanilide] , can you help?
# output 0.591

# input // repeat for O=C1CC[C@@H](C(=O)N2CSC[C@H]2C(=O)O)N1 [Pidotimod] and report
# output 0.799

# input Param item: CCCCCCC[N+](CC)(CC)CCCCc1ccc(Cl)cc1 [Clofilium tosylate]
# output 0.657

# input Next: COc1c(N2CCNC(C)C2)c(F)cc2c(=O)c(C(=O)O)cn(C3CC3)c12 (stereo unspecified) [Gatifloxacin]
# output 0.413

# input Same question, CC(=O)O[C@H]1C[C@H](O[C@H]2[C@@H](O)C[C@H](O[C@H]3[C@@H](O)C[C@H](O[C@H]4CC[C@@]5(C)[C@H](CC[C@@H]6[C@@H]5C[C@@H](O)[C@]5(C)[C@@H](C7=CC(=O)OC7)CC[C@]65O)C4)O[C@@H]3C)O[C@@H]2C)O[C@H](C)[C@H]1O[C@@H]1O[C@H](CO)[C@@H](O)[C@H](O)[C@H]1O [Lanatoside C] this time
# output 2.85

# input Would you kindly repeat that for CC(C)C[C@H](NC(=O)CNC(=O)c1cc(Cl)ccc1Cl)B(O)O [Ixazomib] ?
# output 8.41
